Data origin: ChEMBL document CHEMBL4043279

Readings of IC50 for the listed compounds
tested on: PC-3; test: Antiproliferative activity against human PC3 cells treated for 24 hrs measured after 72 hrs by MTT assay; format: functional, cell-based
parameter_measured: IC50

{"compound": "CN1c2ccccc2C(=O)N2CCc3c(n(CCCOCCCO)c4ccccc34)C21 (configuration not stated)", "parameter_measured": "IC50", "measured_result": "19.9 µM"}
{"compound": "O=C(O)CCCc1ccc(N(CCCl)CCCl)cc1", "parameter_measured": "IC50", "measured_result": "42.1 µM"}
{"compound": "COC(=O)[C@H](Cc1ccc(N(CCCl)CCCl)cc1)NC(=O)CCC(=O)OCCCn1c2c(c3ccccc31)CCN1C(=O)c3ccccc3N(C)C21 (some centres not stated)", "parameter_measured": "IC50", "measured_result": "> 100 µM"}
{"compound": "COC(=O)[C@H](Cc1ccc(N(CCCl)CCCl)cc1)NC(=O)CCC(=O)OCCCCCCn1c2c(c3ccccc31)CCN1C(=O)c3ccccc3N(C)C21 (some centres not stated)", "parameter_measured": "IC50", "measured_result": "> 100 µM"}
{"compound": "COC(=O)[C@H](Cc1ccc(N(CCCl)CCCl)cc1)NC(=O)CCC(=O)OCCCOCCCn1c2c(c3ccccc31)CCN1C(=O)c3ccccc3N(C)C21 (some centres not stated)", "parameter_measured": "IC50", "measured_result": "> 100 µM"}
{"compound": "COC(=O)[C@H](Cc1ccc(N(CCCl)CCCl)cc1)NC(=O)CCC(=O)OCCn1c2c(c3ccccc31)CCN1C(=O)c3ccccc3N(C)C21 (some centres not stated)", "parameter_measured": "IC50", "measured_result": "> 100 µM"}
{"compound": "CN1c2ccccc2C(=O)N2CCc3c(n(CCCOCCCOC(=O)c4ccc(N(CCCl)CCCl)cc4)c4ccccc34)C21 (configuration not stated)", "parameter_measured": "IC50", "measured_result": "> 100 µM"}
